So I've got a bunch of compounds here, and I need their growth inhibition values.
# assay: NCI Yeast Anticancer Drug Screen. Data for the sgs1 strain (AID 173);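 note: 0% = growth of vehicle-only control cultures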
# test_context: S. cerevisiae sgs1 mutant, at 3.7 µM, hits give high values
The panel holds about 79,000 compounds, 15% with a hit somewhere; the sample as a whole holds those more often.
Give bare numbers, in %.

> print(dat)
                                   compound      quantity.kind  units.of.measure  numeric.readout
1  Nc1nc(-c2cccnc2)cc(-c2cc(-c3cccnc3)nc(N)n2)n1  growth inhibition                 %               -4
2  Cc1ccc(-c2ccc(Nc3c4ccccc4nc4ccccc34)cc2)cn1  growth inhibition                 %                6
3          NC(N)=N/N=C\c1c2ccccc2cc2ccccc12  growth inhibition                 %              -31
4               S=c1[nH]nc(Nc2ccc(Cl)cc2)s1  growth inhibition                 %               -7

Can you give me growth inhibition for all of these, one by one?
1. COc1ccc(/C=C/C(=O)C(C)(C)Br)cc1
2. C#CCCCc1ccccc1

Result block:
87
-61

Can you give me growth inhibition for all of these, one by one?
1. CN1c2ccc(Cl)cc2C(=O)NC1c1ccc([N+](=O)[O-])s1 (stereo not drawn)
2. CCN(CC)CCNc1ccc([N+](=O)[O-])c2nc3ccc(OC)cc3c(N)c12
3. CN(CCc1ccccn1)c1ccc2c(c1)Cc1ccccc1-2
4. CC(C(=O)N1C(=O)N(C(=O)[C@H](C)C(O)c2ccccc2)[C@H](c2ccccc2)[C@H]1c1ccccc1)[C@@H](O)c1ccccc1 (stereo partly drawn)
5. Cc1ccc(S(=O)(=O)NNC(=S)Nc2cccc3ccccc23)cc1
6. COc1ccccc1N=NC(C(=O)c1ccccc1)C(=O)c1ccccc1
7. O=C(Cc1csc2[n+]1C(=O)/C(=C/c1ccc(Cl)cc1)S2)Nc1ccccc1
8. O=c1ssc2ncccc12

Result block:
1. 13
2. -9
3. 71
4. 2
5. 4
6. -6
7. 11
8. 12

Can you give me growth inhibition for all of these, one by one?
1. O=C(CC(=O)n1nc(-c2ccccc2)c(N=Nc2ccccc2C(=O)O)c1-c1ccccc1)Nc1ccc(Cl)cc1
2. Oc1cccc2c(Cl)ccnc12
3. CSC(=S)Nc1cc(C)ccn1
4. c1ccc2c(c1)-c1nc3ccccc3cc1C2N1CCOCC1 (stereo not drawn)
5. CC(C)OC(=O)Oc1ccccc1OC(=O)OC(C)C

Result block:
1: -1; 2: 99; 3: -3; 4: 4; 5: 0
